Each entry below carries its reported RGA potency (mean).
- Assay system: T1, murine IL-11 (mouse, UniProt P47873 22-199)
- T1 sequence: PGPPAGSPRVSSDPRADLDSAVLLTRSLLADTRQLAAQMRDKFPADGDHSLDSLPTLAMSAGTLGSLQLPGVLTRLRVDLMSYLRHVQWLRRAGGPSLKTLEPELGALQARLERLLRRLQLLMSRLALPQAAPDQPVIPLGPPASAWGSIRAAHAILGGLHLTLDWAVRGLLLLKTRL
- Test method notes: cell-based or functional assay

See these solved cases before continuing.
TPP-31284 (antibody, IgG4, V domains shown, hIgG4 SPLE, lambda) VH: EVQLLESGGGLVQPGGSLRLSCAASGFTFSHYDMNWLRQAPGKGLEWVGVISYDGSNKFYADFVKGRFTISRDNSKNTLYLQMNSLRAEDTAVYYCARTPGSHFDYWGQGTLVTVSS VL: QSVLTQPPSASGTPGQRVTISCSGSSSNIGNNAVNWYQQLPGTAPKLLIYYDDLRPSGVPDRFSGSKSGTSASLAISGLRSEDEADYYCSAWDDSLNGVVFGGGTKLTVL    < 170 nM
TPP-31277 (antibody, IgG4, V domains shown, hIgG4 SPLE, lambda) VH: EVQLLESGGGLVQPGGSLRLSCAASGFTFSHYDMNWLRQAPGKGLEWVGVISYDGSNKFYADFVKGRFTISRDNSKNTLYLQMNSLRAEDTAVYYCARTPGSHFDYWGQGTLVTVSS VL: QSVLTQPPSASGTPGQRVTISCSGSSSNIGSNAVNWYQQLPGTAPKLLIYYDDLLPSGVPDRFSGSKSGTSASLAISGLRSEDEADYYCSAWDDSLNGVVFGGGTKLTVL    < 170 nM

Now take the following binder into account.
Determine from records and report RGA potency (mean) for TPP-31292 (antibody, IgG4, V domains shown, hIgG4 SPLE, lambda) VH: EVQLLESGGGLVQPGGSLRLSCAASGFTFSHYDMHWLRQAPGKGLEWVGVISYDGSNKFYADFVKGRFTISRDNSKNTLYLQMNSLRAEDTAVYYCARTPGSHFDYWGQGTLVTVSS VL: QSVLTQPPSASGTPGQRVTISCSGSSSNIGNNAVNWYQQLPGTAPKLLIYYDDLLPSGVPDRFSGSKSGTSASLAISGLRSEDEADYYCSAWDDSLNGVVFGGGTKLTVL
< 170 nM
